Attribution: patent US20130156845A1

PROTOCOL DETAILS: Phosphate stability in mouse serum (Example 68)
EXPERIMENTAL PARAMETERS: full compound with intact phosphorous moiety, first table
Strand notation (5' to 3'): a small letter for the sugar, then the base; units joined by * are phosphorothioate-linked, units joined directly phosphodiester-linked; [ ] holds rarer units or linkages, { } end groups; capitals alone tell only the bases. [DMAEAc-N] = nucleoside with 2'-O-dimethylaminoethyl acetamide (DMAEAc) sugar (N: the base); [tcDNA-N] = tricyclo-DNA nucleoside (N: the base); e = 2'-O-(2-methoxyethyl) (MOE); {P} = phosphate; f = 2'-fluoro
ENDPOINT LABEL: T1/2 full length
Please make sure the unit comes right after the number.

These solved cases illustrate the format of a correct answer.
{"SUBSTANCE": "P-UfUfGfUfCfUfCfUfGfGfUfCfCfUfUfAfCfUfUfAeAe (antisense UUGUCUCUGGUCCUUACUUAA; sugars from the 5' end f19 e2, 5' {P}, backbone not given here) [ISIS 404320]", "T1/2 full length": "0.4 h"}
{"SUBSTANCE": "5′-Po-TjUfoGfoUfoCfoUfoCfoUfoGfoGfoUfoCfoCfoUfsUfsAfsCfsUfsUfsAesAe (antisense {P}-[tcDNA-T]fUfGfUfCfUfCfUfGfGfUfCfCfU*fU*fA*fC*fU*fU*eA*eA) [ISIS 418130]", "T1/2 full length": "5.3 h"}
{"SUBSTANCE": "P-TdUfGfUfCfUfCfUfGfGfUfCfCfUfUfAfCfUfUfAeAe (antisense {P}-[DMAEAc-T]fUfGfUfCfUfCfUfGfGfUfCfCfU*fU*fA*fC*fU*fU*eA*eA) [ISIS 422391]", "T1/2 full length": "6.5 h"}

Now, please, on to the next substance.
Input: Please report the recorded T1/2 full length for 5′-Po-UiUfoGfoUfoCfoUfoCfoUfoGfoGfoUfoCfoCfoUfsUfsAfsCfsUfsUfsAesAe (antisense UUGUCUCUGGUCCUUACUUAA; 5'-phosphate, N-methoxyamino BNA, 2'-F, MOE modifications, chemistry not fully specified) [ISIS 418129] .
Output: 5.4 h

* * *

Collected IC50 values appear next to each entry.
Tested on: PTEN
PROTOCOL DETAILS: PTEN mRNA reduction in HeLa cells, dose response (Example 64)
Type: cell-based, human
EXPERIMENTAL PARAMETERS: real-time PCR, 1.56-50 nM
e = 2'-O-(2-methoxyethyl) (MOE); m = 2'-O-methyl; {P} = phosphate; f = 2'-fluoro
Supply the numeric figure in nM, leaving out any unit text.

{"SUBSTANCE": "UfUfGfUfCfUfCmUfGmGfUmCfCmUfUmAfCmUfUmAeAe (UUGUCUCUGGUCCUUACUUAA; sugars from the 5' end ffffffmfmfmfmfmfmfmee, backbone not given here) [ISIS 407047, modified ssRNA targeting PTEN]", "EXPERIMENTAL TARGET": "PTEN", "NUMBER": 3.5}

Input: Form: Entry = P-UfUfGfUfCfUmCmUfGfGmUmCfCfUfUfAfCmUmUmAeAe (antisense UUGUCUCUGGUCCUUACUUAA; sugars from the 5' end fffffmmffmmfffffmmmee, 5' {P}, backbone not given here) [ISIS 408874, modified ssRNA targeting PTEN] | System = PTEN | IC50 = ____
Output: 6

Input: Form: Entry = P-UfUfGfUfCfUfCfUfGfGfUfCfCfUfUfAfCfUfUfAeAe (antisense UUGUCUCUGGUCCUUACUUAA; sugars from the 5' end f19 e2, 5' {P}, backbone not given here) [ISIS 404320, modified ssRNA targeting PTEN] | System = PTEN | IC50 = ____
Output: 5.8

Input: Form: Entry = P-UmUfGfUfCfUmCmUfGfGmUmCfCfUfUfAfCmUmUmAeAe (antisense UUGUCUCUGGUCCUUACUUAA; sugars from the 5' end mffffmmffmmfffffmmmee, 5' {P}, backbone not given here) [ISIS 408877, modified ssRNA targeting PTEN] | System = PTEN | IC50 = ____
Output: 7

Input: Form: Entry = P-UfUfGfUfCfUfCmUfGmGfUmCfCmUfUmAfCmUfUmTeTe (antisense UUGUCUCUGGUCCUUACUUTT; 5'-phosphate, modified nucleotides, chemistry not fully specified) [ISIS 409049, modified ssRNA targeting PTEN] | System = PTEN | IC50 = ____
Output: 16.2

Input: Form: Entry = P-UfUfGfUfCfUmCmUfGfGmUmCfCfUfUfAfCmUmUmTeTe (antisense UUGUCUCUGGUCCUUACUUTT; 5'-phosphate, modified nucleotides, chemistry not fully specified) [ISIS 409062, modified ssRNA targeting PTEN] | System = PTEN | IC50 = ____
Output: 8.6

Input: Form: Entry = P-UmUfGmUfCmUfCmUfGmGfUmCfCmUfUmAfCmUfUmAeAe (antisense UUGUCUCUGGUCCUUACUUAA; sugars from the 5' end mfmfmfmfmfmfmfmfmfmee, 5' {P}, backbone not given here) [ISIS 409044, modified ssRNA targeting PTEN] | System = PTEN | IC50 = ____
Output: 10.5

* * *

PROTOCOL DETAILS: ssRNA stability in hepatocyte cell homogenate assay (Example 65)
Type: in vitro ADME
EXPERIMENTAL PARAMETERS: mouse hepatocyte homogenate, LC-MS; Test 1
e = 2'-O-(2-methoxyethyl) (MOE); m = 2'-O-methyl; {P} = phosphate; f = 2'-fluoro
Binary call on T1/2 Test 1 with cut-off 10 min: strictly below means y, and equality or higher means n.

{"SUBSTANCE": "P-UfUfGfUfCfUfCfUfGfGfUfCfCfUfUfAfCfUfUfAeAe (antisense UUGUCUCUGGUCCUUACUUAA; sugars from the 5' end f19 e2, 5' {P}, backbone not given here) [ISIS 404320, modified ssRNA targeting PTEN]", "CLASS": "y"}
{"SUBSTANCE": "UfUfGfUfCfUfCmUfGmGfUmCfCmUfUmAfCmUfUmAeAe (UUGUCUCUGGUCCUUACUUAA; sugars from the 5' end ffffffmfmfmfmfmfmfmee, backbone not given here) [ISIS 407047, modified ssRNA targeting PTEN]", "CLASS": "y"}
{"SUBSTANCE": "P-UmUfGfUfCfUmCmUfGfGmUmCfCfUfUfAfCmUmUmAeAe (antisense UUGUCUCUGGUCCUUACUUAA; sugars from the 5' end mffffmmffmmfffffmmmee, 5' {P}, backbone not given here) [ISIS 408877, modified ssRNA targeting PTEN]", "CLASS": "n"}
{"SUBSTANCE": "P-UmUfGmUfCmUfCmUfGmGfUmCfCmUfUmAfCmUfUmAeAe (antisense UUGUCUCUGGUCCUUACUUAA; sugars from the 5' end mfmfmfmfmfmfmfmfmfmee, 5' {P}, backbone not given here) [ISIS 409044, modified ssRNA targeting PTEN]", "CLASS": "n"}
{"SUBSTANCE": "P-UfUfGfUfCfUmCmUfGfGmUmCfCfUfUfAfCmUmUmTeTe (antisense UUGUCUCUGGUCCUUACUUTT; 5'-phosphate, modified nucleotides, chemistry not fully specified) [ISIS 409062, modified ssRNA targeting PTEN]", "CLASS": "n"}

Input: Item P-UfUfGfUfCfUmCmUfGfGmUmCfCfUfUfAfCmUmUmAeAe (antisense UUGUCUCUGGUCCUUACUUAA; sugars from the 5' end fffffmmffmmfffffmmmee, 5' {P}, backbone not given here) [ISIS 408874, modified ssRNA targeting PTEN] : T1/2 Test 1 beneath 10 min, strictly?
Output: n

Input: Item P-UfUfGfUfCfUfCmUfGmGfUmCfCmUfUmAfCmUfUmTeTe (antisense UUGUCUCUGGUCCUUACUUTT; 5'-phosphate, modified nucleotides, chemistry not fully specified) [ISIS 409049, modified ssRNA targeting PTEN] : T1/2 Test 1 beneath 10 min, strictly?
Output: n

* * *

Collected EC50 values appear next to each entry.
Tested on: human PTEN
PROTOCOL DETAILS: PTEN expression in HeLa cells, ssRNAs vs siRNAs (Example 62)
Type: cell-based
EXPERIMENTAL PARAMETERS: antisense strand duplexed with sense strand ISIS 341401, PTEN mRNA, read-out: EC50 (nM) siRNA
Strand notation (5' to 3'): a small letter for the sugar, then the base; units joined by * are phosphorothioate-linked, units joined directly phosphodiester-linked; [ ] holds rarer units or linkages, { } end groups; capitals alone tell only the bases. [DMAEAc-N] = nucleoside with 2'-O-dimethylaminoethyl acetamide (DMAEAc) sugar (N: the base); [Rc] = thymidine, 2',5'-bis modified nucleoside Rc; e = 2'-O-(2-methoxyethyl) (MOE); m = 2'-O-methyl; r = 2'-OH (RNA); {P} = phosphate; f = 2'-fluoro
Please make sure the unit comes right after the number.

These solved cases illustrate the format of a correct answer.
{"SUBSTANCE": "P-UfUfGfUfCfUfCfUfGfGfUfCfCfUfUfAfCfUfUfAeAe (antisense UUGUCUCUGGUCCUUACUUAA; sugars from the 5' end f19 e2, 5' {P}, backbone not given here) [ISIS 404320, modified ssRNA targeting PTEN]", "EC50": "0.5 nM"}
{"SUBSTANCE": "UUGUCUCUGGUCCUUACUU (rUrUrGrUrCrUrCrUrGrGrUrC*rC*rU*rU*rA*rC*rU*rU) [ISIS 359455, unmodified RNA antisense strand targeting PTEN]", "EC50": "0.3 nM"}
{"SUBSTANCE": "P-TdUfGfUfCfUfCfUfGfGfUfCfCfUfUfAfCfUfUfAeAe (antisense {P}-[DMAEAc-T]fUfGfUfCfUfCfUfGfGfUfCfCfU*fU*fA*fC*fU*fU*eA*eA) [ISIS 422391, modified ssRNA targeting PTEN]", "EC50": "0.5 nM"}
{"SUBSTANCE": "P-TdUfGmUfCmUfCmUfGmGfUmCfCmUfUmAfCmUfUmAeAe (antisense TUGUCUCUGGUCCUUACUUAA; 5'-phosphate, chemical modifications, chemistry not fully specified) [ISIS 435397, modified ssRNA targeting PTEN]", "EC50": "0.4 nM"}
{"SUBSTANCE": "Py-^meUmUfGmUfCmUfCmUfGmGfUmCfCmUfUmAfCmUfUmAeAe (antisense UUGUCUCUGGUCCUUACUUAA; 5'-methylenephosphonate, 2'-F/2'-OMe, MOE, chemistry not fully specified) [ISIS 467076, modified ssRNA targeting PTEN, 5′-methylenephosphonate]", "EC50": "0.05 nM"}
{"SUBSTANCE": "Pz-^meUhUfGmUfCmUfCmUfGmGfUmCfCmUfUmAfCmUfUmAeAe (antisense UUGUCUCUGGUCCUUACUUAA; 5'-difluoromethylenephosphonate, 2'-F/2'-OMe alternating, MOE 3' end, first nucleoside modification undefined, further chemistry not given here) [ISIS 460646, modified ssRNA targeting PTEN, 5′-difluoromethylenephosphonate]", "EC50": "0.8 nM"}

Input: Please report the recorded EC50 for P-TRcUfGmUfCmUfCmUfGmGfUmCfCmUfUmAfCmUfUmAeAe (antisense TUGUCUCUGGUCCUUACUUAA; sugars from the 5' end [Rc]fmfmfmfmfmfmfmfmfmee, 5' {P}, backbone not given here) [ISIS 447581, modified ssRNA targeting PTEN] .
Output: 0.4 nM

Input: Please report the recorded EC50 for P-TScUfGmUfCmUfCmUfGmGfUmCfCmUfUmAfCmUfUmAeAe (antisense TUGUCUCUGGUCCUUACUUAA; 5'-phosphate, 2'-F/2'-OMe, MOE modifications, chemistry not fully specified) [ISIS 467074, modified ssRNA targeting PTEN] .
Output: 0.1 nM
